Reference source for all entries: ChEMBL document CHEMBL5058577

- System: Fibroblast
- assay-protocol: Multiplex assay against human fibroblast
- Format: toxicity, cell-based
- test-conditions: 24 h, 10 µM, compound concentration 10 uM, replicate 2
readout-name: Population Pyknosed Nuclei (%)
Field: numeric (%). Do not append units.

State Population Pyknosed Nuclei (%) (Fibroblast) of CN[C@@H](C)C(=O)N[C@H](C(=O)N1CCC[C@H]1C(=O)Nc1snnc1-c1ccccc1)C1CCCCC1 [GDC-0152] .
31

Recall the reported Population Pyknosed Nuclei (%) of Br.CS(=O)(=O)Nc1c(O)ccc2c1CCCC2C1=NCCN1 (stereo not drawn) on Fibroblast and write it down.
13

Find the measured Population Pyknosed Nuclei (%) of "Cc1cnc(-c2cc(N3CCN(C(=O)CCS(C)(=O)=O)CC3)ncc2Cl)c(C)c1" with Fibroblast as test system.
12

State, for Fibroblast, measured Population Pyknosed Nuclei (%) of the compound listed here: "CN(C)C(=O)Cn1cc(-c2ccc(-c3cncc4ccccc34)cc2)cn1"
15

Give Population Pyknosed Nuclei (%) only, for CC[C@@H](C)Nc1nc(C)nc2c(-c3ccc(OC)nc3C)c(C)nn12 [PEXACERFONT] , using Fibroblast data.
33

Recall the reported Population Pyknosed Nuclei (%) of "Cc1noc(-c2ccc(-c3ccc(CC(=O)O)cc3)cc2)c1NC(=O)O[C@H](C)c1ccccc1Cl" on Fibroblast and write it down.
31

Enter Population Pyknosed Nuclei (%) (test system Fibroblast) for CC(=O)Nc1cccc2c1c(Sc1ccc(Cl)cc1)c(C)n2CC(=O)O [AZD1981]
20

Recall the reported Population Pyknosed Nuclei (%) of CC(C)COc1ccc(CNC(=O)N(Cc2ccc(F)cc2)C2CCN(C)CC2)cc1 [PIMAVANSERIN] on Fibroblast and write it down.
21

System Fibroblast. Read-out Population Pyknosed Nuclei (%). Item CC(C)c1noc(N2CCC(COc3ccc(-c4ccc(S(C)(=O)=O)cc4)nc3)CC2)n1 [GSK-1292263] . Report value.
23

Provide the reported Population Pyknosed Nuclei (%) (system: Fibroblast) for "O=C1[C@H](Cc2ccc(O)cc2)N2C(=O)CCN(C(=O)NCc3ccccc3)[C@H]2CN1Cc1cccc2ccccc12"
26

Enter recorded Population Pyknosed Nuclei (%) with Fibroblast for "CCc1cc2cc(NS(=O)(=O)c3ccc(C#N)cc3)ccc2n(CC)c1=O" here.
39

Under Fibroblast: report Population Pyknosed Nuclei (%) of "CCCCC(=O)N(Cc1ccc(-c2ccccc2-c2nnn[nH]2)cc1)[C@H](C(=O)O)C(C)C" .
29

// fetch Population Pyknosed Nuclei (%) for Cl.NCCc1ccc(O)c(O)c1 [DOPAMINE HYDROCHLORIDE] ; system: Fibroblast
15

Please tell me the measured Population Pyknosed Nuclei (%) for "N#Cc1c(Oc2cccc(OS(=O)(=O)CCCC(F)(F)F)c2)cccc1C(F)(F)F" ; system: Fibroblast.
36

Answer briefly: Population Pyknosed Nuclei (%) recorded on Fibroblast for "Cc1onc(-c2ccccc2Cl)c1C(=O)N(C)c1ccc(Cl)cc1"
23

Answer briefly: Population Pyknosed Nuclei (%) recorded on Fibroblast for COC[C@@H](c1ccc(C(F)(F)F)cc1)N1CCN(C2(C)CCN(C(=O)c3c(C)ncnc3C)CC2)C[C@@H]1C.O=C(O)/C=C\C(=O)O [VICRIVIROC MALEATE]
14

Look up and report Population Pyknosed Nuclei (%), with Fibroblast as system, for "NCCc1cn(S(=O)(=O)c2c(Cl)nc3sccn23)c2ccccc12.O=C(O)C(=O)O"
18

For Fibroblast, give the measured Population Pyknosed Nuclei (%) of the entry Cc1c(CC(=O)O)c2cccnc2n1Cc1ccc(S(C)(=O)=O)cc1C(F)(F)F [FEVIPIPRANT]
21
